- Test description: Plasma pharmacokinetics after single oral dose of Δ8-THCV in MCT oil (LC-MS/MS, non-compartmental analysis)
- Assay type: in vivo, human
- Stated conditions: human, plasma, oral, 200 mg, 2 h; 200 mg Δ8-THCV dose; Mean (SD, %CV)
Value type: concentration at 2 h (ng/mL)
Kindly provide the numeric value in ng/mL only, without the unit symbol.

// concentration at 2 h lookup, molecule = CCCc1cc(O)c2c(c1)OC(C)(C)[C@@H]1CCC(C)=C[C@@H]21 [Δ9-THCV, Δ9-tetrahydrocannabivarin] , result: 0.6

For this molecule ( CCCc1cc(O)c2c(c1)OC(C)(C)[C@@H]1CC=C(C(=O)O)C[C@@H]21 ), measured concentration at 2 h is 653

Item: CCCc1cc(O)c2c(c1)OC(C)(C)[C@@H]1CC=C(CO)C[C@@H]21 (racemic) [11-OH-Δ8-THCV, (±)-11-hydroxy-Δ8-THCV] | concentration at 2 h: 4.5
